# measurement_conditions: bacteroides thetaiotaomicron, 12 h, 2 µM
# Description: The drug is tested on Bacteroides thetaiotaomicron strain: 3731 for biotransformation. The drug concentrations were measured before and after a 12-h incubation by liquid-chromatography-coupled mass spectrometry (LC–MS)
measure_name: Bacterial Biotransformation

NC(CO)(CO)CO.O=C(c1ccccc1)c1ccc2n1CCC2C(=O)O (stereo not given) :: Compound metabolized
O=C1N=C([O-])NC1(c1ccccc1)c1ccccc1.[Na+] [PHENYTOIN SODIUM] :: Compound NOT metabolized
COc1ccccc1OCC(O)COC(N)=O (stereo not given) :: Compound NOT metabolized
CNC(=C[N+](=O)[O-])NCCSCc1csc(CN(C)C)n1 :: Compound NOT metabolized
C[C@@H](CO)NC(=O)[C@@H]1C=C2c3cccc4[nH]cc(c34)C[C@H]2N(C)C1.O=C(O)/C=C\C(=O)O [ERGONOVINE MALEATE] :: Compound NOT metabolized
CC(Oc1c(Cl)cccc1Cl)C1=NCCN1 (stereo not given) :: Compound metabolized

Incoming: Value lookup for Bacterial Biotransformation; key = O=c1[nH]c2ccccc2n1C1CCN(CCCC(c2ccc(F)cc2)c2ccc(F)cc2)CC1 [PIMOZIDE]
Outgoing: Compound NOT metabolized

Incoming: Look up Bacterial Biotransformation for this compound: CCS(=O)(=O)CCn1c([N+](=O)[O-])cnc1C
Outgoing: Compound metabolized

Incoming: Would you mind telling me what Bacterial Biotransformation value was observed for CCN(CC)C(=O)/C(C#N)=C/c1cc(O)c(O)c([N+](=O)[O-])c1 ?
Outgoing: Compound metabolized

Incoming: // Bacterial Biotransformation lookup, key: CC(=O)SCC(Cc1ccccc1)C(=O)NCC(=O)OCc1ccccc1 (stereo not given)
Outgoing: Compound metabolized

Incoming: Using the record for CN1C[C@H](C(=O)N[C@]2(C)O[C@@]3(O)[C@@H]4CCCN4C(=O)[C@H](Cc4ccccc4)N3C2=O)C=C2c3cccc4[nH]cc(c34)C[C@H]21.CN1C[C@H](C(=O)N[C@]2(C)O[C@@]3(O)[C@@H]4CCCN4C(=O)[C@H](Cc4ccccc4)N3C2=O)C=C2c3cccc4[nH]cc(c34)C[C@H]21.O=C(O)C(O)C(O)C(=O)O [ERGOTAMINE TARTRATE] , report its Bacterial Biotransformation.
Outgoing: Compound metabolized

Incoming: Which Bacterial Biotransformation value belongs to COCCCC/C(=N\OCCN)c1ccc(C(F)(F)F)cc1.O=C(O)/C=C\C(=O)O [FLUVOXAMINE MALEATE] ?
Outgoing: Compound metabolized

Incoming: Which Bacterial Biotransformation reading was recorded for the compound COc1ccc(/C=C/C(=O)Nc2ccccc2C(=O)O)cc1OC ?
Outgoing: Compound NOT metabolized

Incoming: Could you tell me which Bacterial Biotransformation is on file for N#Cc1ccc2[nH]cc(CCCCN3CCN(c4ccc5oc(C(N)=O)cc5c4)CC3)c2c1 ?
Outgoing: Compound metabolized

Incoming: Please look up its Bacterial Biotransformation: CN1CCC(=C2c3ccccc3CC(=O)c3sccc32)CC1.O=C(O)/C=C/C(=O)O [KETOTIFEN FUMARATE]
Outgoing: Compound NOT metabolized

Incoming: Which Bacterial Biotransformation reading was recorded for the compound CN[C@H]1CC[C@@H](c2ccc(Cl)c(Cl)c2)c2ccccc21 ?
Outgoing: Compound NOT metabolized

Incoming: Look up Bacterial Biotransformation for this compound: Cc1nc2n(c(=O)c1CCN1CCC(c3noc4cc(F)ccc34)CC1)CCCC2
Outgoing: Compound NOT metabolized

Incoming: For the compound shown here, CCN(CC)CCOC(=O)C1(C2CCCCC2)CCCCC1 , give the reported Bacterial Biotransformation.
Outgoing: Compound NOT metabolized

Incoming: Consider the compound shown here: COc1ccc([C@@H]2Sc3ccccc3N(CCN(C)C)C(=O)[C@@H]2OC(C)=O)cc1 What is its recorded Bacterial Biotransformation?
Outgoing: Compound metabolized

Incoming: If you can, please state the reported Bacterial Biotransformation value of Nc1nc(N)nc(-c2cc(Cl)ccc2Cl)n1.O=C(O)/C=C\C(=O)O [IRSOGLADINE MALEATE] .
Outgoing: Compound NOT metabolized
